# test target: Tyrosine-protein kinase receptor TYRO3 (Homo sapiens) (UniProt Q06418)
# Sequence (Q06418 whole entry, the tested form may be a part): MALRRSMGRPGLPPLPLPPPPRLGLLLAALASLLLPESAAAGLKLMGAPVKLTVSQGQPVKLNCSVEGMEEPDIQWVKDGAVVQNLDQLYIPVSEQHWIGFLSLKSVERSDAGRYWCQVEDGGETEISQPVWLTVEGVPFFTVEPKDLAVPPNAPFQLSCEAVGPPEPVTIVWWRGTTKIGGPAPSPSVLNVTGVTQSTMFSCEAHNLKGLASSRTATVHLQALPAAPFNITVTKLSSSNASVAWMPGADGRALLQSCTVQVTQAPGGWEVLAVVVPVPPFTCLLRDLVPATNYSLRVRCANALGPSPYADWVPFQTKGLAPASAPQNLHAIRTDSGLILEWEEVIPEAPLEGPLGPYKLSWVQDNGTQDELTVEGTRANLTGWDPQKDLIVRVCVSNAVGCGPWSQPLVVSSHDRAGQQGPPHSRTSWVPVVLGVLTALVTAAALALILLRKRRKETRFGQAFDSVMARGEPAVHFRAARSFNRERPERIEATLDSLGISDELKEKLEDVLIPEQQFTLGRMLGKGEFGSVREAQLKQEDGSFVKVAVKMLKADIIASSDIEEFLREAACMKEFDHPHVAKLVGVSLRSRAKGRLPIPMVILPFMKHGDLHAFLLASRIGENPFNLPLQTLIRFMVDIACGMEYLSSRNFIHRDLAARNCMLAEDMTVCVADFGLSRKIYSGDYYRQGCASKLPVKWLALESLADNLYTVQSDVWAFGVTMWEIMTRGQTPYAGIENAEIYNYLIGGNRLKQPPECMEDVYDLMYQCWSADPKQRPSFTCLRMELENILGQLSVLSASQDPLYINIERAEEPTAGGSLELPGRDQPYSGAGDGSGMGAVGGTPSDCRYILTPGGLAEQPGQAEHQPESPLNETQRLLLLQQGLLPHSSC
# test details: Inhibition of recombinant GST-tagged human Tyro3 (451 to 890 residues) cytoplasmic domain expressed in Baculovirus expression system using poly (Glu-Ala-Tyr) peptide as substrate after 1.5 hrs by ELISA
Active and inactive are the calls of the source. The calls are words filed in the database; no cut-off is given here.
// classify into YES for active, NO for inactive

Query block: Recorded call for O=C(Nc1ccc(Oc2ccnc3[nH]cnc23)c(F)c1)c1cccn(-c2ccc(F)cc2)c1=O ?
Result block: YES

Query block: Recorded call for CC(C)c1nc2c(Oc3ccc(NC(=O)c4cccn(-c5ccc(F)cc5)c4=O)cc3F)c(-c3ccoc3)cnc2[nH]1 ?
Result block: NO

Query block: Recorded call for CC(C)c1nc2c(Oc3ccc(NC(=O)c4cccn(-c5ccc(F)cc5)c4=O)cc3F)c(-c3ccc(N(C)C)cc3)cnc2[nH]1 ?
Result block: NO

Query block: Recorded call for CCc1nc2c(Oc3ccc(NC(=O)c4cccn(-c5ccc(F)cc5)c4=O)cc3F)c(-c3ccncc3)cnc2[nH]1 ?
Result block: NO

Query block: Recorded call for O=C(Nc1ccc(Oc2c(-c3ccccc3)cnc3[nH]cnc23)c(F)c1)c1cccn(-c2ccc(F)cc2)c1=O ?
Result block: NO

Query block: Recorded call for CCc1nc2c(Oc3ccc(NC(=O)c4cccn(-c5ccc(F)cc5)c4=O)cc3F)c(-c3ccc(N(C)C)cc3)cnc2[nH]1 ?
Result block: NO

Query block: Recorded call for O=C(Nc1ccc(Oc2c(Br)cnc3[nH]cnc23)c(F)c1)c1cccn(-c2ccc(F)cc2)c1=O ?
Result block: NO

Query block: Recorded call for CCc1nc2c(Oc3ccc(NC(=O)c4cccn(-c5ccc(F)cc5)c4=O)cc3F)c(-c3ccoc3)cnc2[nH]1 ?
Result block: NO

Query block: Recorded call for CCc1nc2c(Oc3ccc(NC(=O)c4cccn(-c5ccc(F)cc5)c4=O)cc3F)c(-c3ccc(O)cc3)cnc2[nH]1 ?
Result block: NO

Query block: Recorded call for CC(C)c1nc2c(Oc3ccc(NC(=O)c4cccn(-c5ccc(F)cc5)c4=O)cc3F)c(-c3cccnc3)cnc2[nH]1 ?
Result block: NO

Query block: Recorded call for CC(C)c1nc2c(Oc3ccc(NC(=O)c4cccn(-c5ccc(F)cc5)c4=O)cc3F)c(-c3ccncc3)cnc2[nH]1 ?
Result block: NO

Query block: Recorded call for CC(C)c1nc2c(Oc3ccc(NC(=O)c4cccn(-c5ccc(F)cc5)c4=O)cc3F)ccnc2[nH]1 ?
Result block: NO

Query block: Recorded call for Cc1cnc2[nH]cnc2c1Oc1ccc(NC(=O)c2cccn(-c3ccc(F)cc3)c2=O)cc1F ?
Result block: NO

Query block: Recorded call for CCc1nc2c(Oc3ccc(NC(=O)c4cccn(-c5ccc(F)cc5)c4=O)cc3F)c(-c3cccnc3)cnc2[nH]1 ?
Result block: NO

Query block: Recorded call for CC(C)c1nc2c(Oc3ccc(NC(=O)c4cccn(-c5ccc(F)cc5)c4=O)cc3F)c(-c3ccc(O)cc3)cnc2[nH]1 ?
Result block: NO

###

Please go through the items and note down their Activity.
# test target: Aurora kinase A (Homo sapiens) (UniProt O14965)
# Sequence (O14965 whole entry, the tested form may be a part): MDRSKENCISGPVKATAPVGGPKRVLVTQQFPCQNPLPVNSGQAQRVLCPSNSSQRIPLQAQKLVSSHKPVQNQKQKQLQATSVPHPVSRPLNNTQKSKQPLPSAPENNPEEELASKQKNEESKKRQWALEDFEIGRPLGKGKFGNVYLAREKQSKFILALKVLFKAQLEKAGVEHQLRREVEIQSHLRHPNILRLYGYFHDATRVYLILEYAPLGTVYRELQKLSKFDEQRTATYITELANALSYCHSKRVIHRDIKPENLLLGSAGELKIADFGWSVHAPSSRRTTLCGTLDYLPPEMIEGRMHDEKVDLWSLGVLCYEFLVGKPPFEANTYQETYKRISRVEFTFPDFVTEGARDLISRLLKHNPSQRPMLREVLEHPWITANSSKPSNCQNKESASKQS
# test details: Binding affinity to wild-type human partial length AURKA (E122 to K401 residues) expressed in mammalian expression system assessed as fraction of unbound kinase to substrate at 0.1 uM after 1 hr by KinomeScan assay
Answer in %, number only, no unit symbol.

Measured Activity (Aurora kinase A (Homo sapiens) (UniProt O14965)), entry Cc1cnc2[nH]cnc2c1Oc1ccc(NC(=O)c2cccn(-c3ccc(F)cc3)c2=O)cc1F : 1

Measured Activity (Aurora kinase A (Homo sapiens) (UniProt O14965)), entry CC(C)c1nc2c(Oc3ccc(NC(=O)c4cccn(-c5ccc(F)cc5)c4=O)cc3F)ccnc2[nH]1 : 1

Measured Activity (Aurora kinase A (Homo sapiens) (UniProt O14965)), entry O=C(Nc1ccc(Oc2c(Br)cnc3[nH]cnc23)c(F)c1)c1cccn(-c2ccc(F)cc2)c1=O : 7

Measured Activity (Aurora kinase A (Homo sapiens) (UniProt O14965)), entry O=C(Nc1ccc(Oc2ccnc3[nH]cnc23)c(F)c1)c1cccn(-c2ccc(F)cc2)c1=O : 5
